Can you tell me Ki for the items I'm about to list?
Biological target: 5-HT2C receptor (Homo sapiens, UniProt P28335)
Sequence (P28335 33-458): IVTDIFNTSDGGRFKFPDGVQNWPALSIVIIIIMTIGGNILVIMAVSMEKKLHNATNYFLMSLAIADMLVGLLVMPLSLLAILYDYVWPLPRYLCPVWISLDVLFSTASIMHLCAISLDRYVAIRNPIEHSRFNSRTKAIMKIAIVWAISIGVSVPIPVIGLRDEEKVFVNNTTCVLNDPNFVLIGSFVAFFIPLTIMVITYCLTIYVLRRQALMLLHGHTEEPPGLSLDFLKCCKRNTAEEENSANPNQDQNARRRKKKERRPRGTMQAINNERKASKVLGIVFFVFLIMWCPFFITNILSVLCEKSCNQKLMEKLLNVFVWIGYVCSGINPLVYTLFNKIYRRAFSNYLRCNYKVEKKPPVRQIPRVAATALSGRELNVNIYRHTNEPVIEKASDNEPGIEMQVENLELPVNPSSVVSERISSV
Experiment: biochemical
Type: binding

>  <compound>
CNC(C)C(=O)c1ccc2c(c1)OCO2 (centres unmarked) [Methylone, 3,4-methylenedioxymethcathinone, reference compound]

>  <assayed_system>
5-HT2C receptor (Homo sapiens, UniProt P28335)

>  <endpoint>
Ki

>  <result>
> 14 µM

$$$$

For record CC(N)Cc1ccc(O)c(O)c1 (centres unmarked) [HHA, 3,4-Dihydroxyamphetamine] the listed Ki is > 5.1 µM
